target-entity: FGFR1 (UniProt P11362)
Sequence (P11362 whole entry, looked up): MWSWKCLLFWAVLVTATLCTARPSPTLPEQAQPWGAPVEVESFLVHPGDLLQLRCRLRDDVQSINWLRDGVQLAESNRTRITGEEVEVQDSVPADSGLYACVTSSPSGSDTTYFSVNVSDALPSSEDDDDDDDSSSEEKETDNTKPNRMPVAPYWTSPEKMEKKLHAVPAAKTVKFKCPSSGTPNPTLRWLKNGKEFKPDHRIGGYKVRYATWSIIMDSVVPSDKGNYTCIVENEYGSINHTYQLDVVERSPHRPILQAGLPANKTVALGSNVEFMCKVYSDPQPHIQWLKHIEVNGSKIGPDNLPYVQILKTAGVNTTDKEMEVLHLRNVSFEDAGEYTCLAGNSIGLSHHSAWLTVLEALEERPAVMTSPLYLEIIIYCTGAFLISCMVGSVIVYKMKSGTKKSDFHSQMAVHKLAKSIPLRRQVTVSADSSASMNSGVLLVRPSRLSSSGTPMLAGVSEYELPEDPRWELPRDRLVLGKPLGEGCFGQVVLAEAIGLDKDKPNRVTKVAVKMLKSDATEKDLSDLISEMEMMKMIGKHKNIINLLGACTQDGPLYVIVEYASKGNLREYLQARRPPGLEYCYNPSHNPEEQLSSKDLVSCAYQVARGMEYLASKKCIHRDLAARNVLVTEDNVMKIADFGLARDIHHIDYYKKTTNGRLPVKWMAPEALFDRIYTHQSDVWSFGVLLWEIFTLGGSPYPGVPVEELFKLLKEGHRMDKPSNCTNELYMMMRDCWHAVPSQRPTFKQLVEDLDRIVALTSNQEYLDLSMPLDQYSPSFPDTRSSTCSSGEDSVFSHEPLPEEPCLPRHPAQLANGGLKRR
procedure-details: phosphorylation enrichment, bacterial display (enrichment ratio); higher = better substrate or ligand; peptides without Tyr show the background;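 further: 11-residue human phosphosite peptides and single-mutation variants displayed on the E. coli surface, counted by deep sequencing, each peptide's frequency after selection divided by its frequency in the unselected input library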;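 further: frequency after pTyr selection over input frequency; kinase dosed for 20-30% of maximal phosphorylation in three min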
measured-metric: phosphorylation enrichment
No unit in the answer, only the number.

# annotated cases, reported phosphorylation enrichment shown
[[record]]
sequence_text = "GANFEYIIAEK [ECHS1_Y35]"
readout_value = 0.523

[[record]]
sequence_text = "RKVAQYMLENE [SLC16A6_Y224_E221V]"
readout_value = 0.648

[[record]]
sequence_text = "NDDDVYLSLEE [VAV2_Y142_R143L]"
readout_value = 0.725

[[record]]
sequence_text = "SDQRRYSLIDR [CLIP2_Y972]"
readout_value = 0.356

[[record]]
sequence_text = "IGEGTYGQVFK [CDK13_Y716_YF]"
readout_value = 0.324


Value lookup for phosphorylation enrichment; key = DFPIGYPSFLA [TBCK_Y153_YF]
0.578

Next up: EWKQNYEESQS [MYH7_Y1460_K1459N]
0.546

Next up: KVGPGSLGSGG [RET_Y826_Y826S]
0.308

Next up: YEEDSYVKRSQ [RET_Y905]
0.495

Next up: FGEFRYRSVIK [CFTR_Y517_D513G_YF]
0.44

Next up: AAQNCYKVTNA [TPI1_Y105_G110A]
0.367

Next up: EQQRAYLEGTC [HLA-C_Y183_L180Q]
0.599
